List of IC50 values.
molecular target: KDR kinase domain (Homo sapiens); construct: The cytosolic kinase domain of KDR kinase was expressed as a 6His fusion protein in Sf9 insect cells; 6His; test: KDR Assay (ELISA of poly(Glu4;Tyr1) phosphorylation); settings: 3.3 µM ATP, 60 minutes at room temperature
Sequence (P35968 834-1162 limits assumed): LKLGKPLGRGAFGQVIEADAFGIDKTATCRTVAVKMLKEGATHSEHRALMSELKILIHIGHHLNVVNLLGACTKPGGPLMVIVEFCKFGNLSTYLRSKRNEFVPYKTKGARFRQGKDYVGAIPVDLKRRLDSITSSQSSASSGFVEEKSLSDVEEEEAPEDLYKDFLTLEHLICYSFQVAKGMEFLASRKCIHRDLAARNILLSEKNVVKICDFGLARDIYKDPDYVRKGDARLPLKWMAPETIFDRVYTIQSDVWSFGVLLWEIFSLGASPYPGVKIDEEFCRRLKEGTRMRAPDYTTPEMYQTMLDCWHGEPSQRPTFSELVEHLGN

Below: 2 compounds and their reported IC50.
| compound | experimentalTarget | IC50 |
| --- | --- | --- |
| CNC(=O)c1cc(COc2nnc(Nc3ccc(F)cc3)c3ccsc23)ccn1 | KDR kinase domain (Homo sapiens) | 100 to 1000 nM |
| CNC(=O)c1cc(COc2nnc(Nc3ccc(N4CCOCC4)cc3)c3ccoc23)ccn1 | KDR kinase domain (Homo sapiens) | 100 to 1000 nM |

Attention now shifts to the item below.
Enquiry: Hello, please tell me recorded IC50 for this one: CN(C)CCNC(=O)c1cc(COc2nnc(Nc3ccc(Cl)cc3)c3ccoc23)ccn1 [Example 82A]
Return: 100 to 1000 nM
